# measurement.protocol: Antiprion activity against Chandler strain of sheep scrapie prion protein infected in mouse SMB cells assessed as clearance of disease-associated scrapie prion protein
# Assay type: cell-based, Ovis aries
# condition.description: Ovis aries, SMB; read-out: EC50
pEC50: −log10 of the molar value.
Recorded pEC50 values for a group of compounds are listed next.
measured.attribute: pEC50

1. CCN(CC)CCNC(=O)c1sc(-c2ccc(OC)cc2)nc1-c1ccccc1 ... 5.40
2. CCN(CC)CCNC(=O)c1sc(-c2cccnc2)nc1-c1ccccc1 ... 4.70
3. CCN(CC)CCCC(C)NC(=O)c1sc(-c2ccccc2)nc1-c1ccccc1 (stereo unspecified) ... 5.54
4. O=C(c1sc(-c2ccccc2)nc1-c1ccccc1)N1CCC(N2CCCC2)CC1 ... 5.26
5. CCN(CC)CCCNC(=O)c1sc(-c2ccccc2)nc1-c1ccccc1 ... 5.64
6. CN(C)CCNC(=O)c1sc(-c2ccccc2)nc1-c1ccccc1 ... 5.32
7. O=C(c1sc(-c2ccccc2)nc1-c1ccccc1)N1CCC(N2CCCCC2)CC1 ... 5.72
8. CCN(CC)CCNC(=O)c1sc(-c2cccs2)nc1-c1ccccc1 ... 5.17
9. CCN(CC)CCNC(=O)c1sc(-c2ccccc2)nc1-c1ccccc1 ... 5.31
10. O=C(NCCN1CCCC1)c1sc(-c2ccccc2)nc1-c1ccccc1 ... 4.97
11. CCN(CC)CCCC(C)Nc1ccnc2cc(Cl)ccc12 (stereo unspecified) ... 5.64

* * *

# measurement.protocol: Cytotoxicity against mouse SMB cells up to 20 uM
# Format: cell-based
measured.attribute: Activity

1) O=C(NCc1ccccn1)c1sc(-c2ccccc2)nc1-c1ccccc1 ... Non-toxic
2) CCN(CC)CCCC(C)NC(=O)c1sc(-c2ccccc2)nc1-c1ccccc1 (stereo not drawn) ... Non-toxic
3) CCN(CC)CCCNC(=O)c1sc(-c2ccccc2)nc1-c1ccccc1 ... Non-toxic
4) CCN(CC)CCNC(=O)c1sc(-c2cccnc2)nc1-c1ccccc1 ... Non-toxic
5) O=C(NCCN1CCOCC1)c1sc(-c2ccccc2)nc1-c1ccccc1 ... Non-toxic
6) CCN(CC)CCNC(=O)c1sc(-c2ccccc2)nc1-c1ccccc1 ... Non-toxic
7) CCN(CC)CCNC(=O)c1sc(-c2ccc(OC)cc2)nc1-c1ccccc1 ... Non-toxic
8) O=C(NCCN1CCCC1)c1sc(-c2ccccc2)nc1-c1ccccc1 ... Toxic
9) O=C(c1sc(-c2ccccc2)nc1-c1ccccc1)N1CCC(N2CCCCC2)CC1 ... Non-toxic
10) CN(C)CCNC(=O)c1sc(-c2ccccc2)nc1-c1ccccc1 ... Toxic
11) CCN(CC)CCNC(=O)c1sc(-c2cccs2)nc1-c1ccccc1 ... Non-toxic
12) O=C(NCCCn1ccnc1)c1sc(-c2ccccc2)nc1-c1ccccc1 ... Non-toxic
13) O=C(c1sc(-c2ccccc2)nc1-c1ccccc1)N1CCC(N2CCCC2)CC1 ... Non-toxic
